These entries and their values trace back to patent US20250368745A1.

Listed here: items and their measured pKd.
- assay target: T1, human IL-18BP (human, UniProt O95998 31-194)
- T1 construct: UniProt printed as 095998; also called hIL-18BP
- T1 sequence: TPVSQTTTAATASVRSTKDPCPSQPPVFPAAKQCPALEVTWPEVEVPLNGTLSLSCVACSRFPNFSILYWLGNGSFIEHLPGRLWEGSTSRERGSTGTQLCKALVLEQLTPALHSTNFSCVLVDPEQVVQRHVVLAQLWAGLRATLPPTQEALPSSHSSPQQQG
- assay method text: BLI, apparent KD
Note: pKd values are expressed as the negative base-10 logarithm of concentration in M.

* SA301a HC-S54V (antibody, name in Kabat numbering, V domains shown, IgG1 kappa) VH: QVQLQESGPGLVKPSQTLSLTCTVSGYSITSDYNSHWIRQPPGKGLEWIGYIHYVGSTNYNPSLKSRVTISRDTSKNQFSLKLSSVTAADTAVYYCARNYGSIYVNYFDYWGQGTLVTVSS VL: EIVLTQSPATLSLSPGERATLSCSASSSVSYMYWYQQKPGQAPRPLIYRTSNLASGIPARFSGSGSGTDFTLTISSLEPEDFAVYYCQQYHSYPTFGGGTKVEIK | 9.26

For the next question, use this binder.
Reported pKd, binder SA301a HC-H52K (antibody, name in Kabat numbering, V domains shown, IgG1 kappa) VH: QVQLQESGPGLVKPSQTLSLTCTVSGYSITSDYNSHWIRQPPGKGLEWIGYIKYSGSTNYNPSLKSRVTISRDTSKNQFSLKLSSVTAADTAVYYCARNYGSIYVNYFDYWGQGTLVTVSS VL: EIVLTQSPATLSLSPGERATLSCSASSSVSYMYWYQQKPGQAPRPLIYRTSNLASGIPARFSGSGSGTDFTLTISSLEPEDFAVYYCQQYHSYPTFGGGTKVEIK : ____
11.00
